Reference source for all entries: the kinase profiling compilation of Christmann-Franck et al. (2016)

Target: CDK3 CCNE1 (human) (UniProt Q00526+P24864)
Sequence (P24864 whole entry, looked up): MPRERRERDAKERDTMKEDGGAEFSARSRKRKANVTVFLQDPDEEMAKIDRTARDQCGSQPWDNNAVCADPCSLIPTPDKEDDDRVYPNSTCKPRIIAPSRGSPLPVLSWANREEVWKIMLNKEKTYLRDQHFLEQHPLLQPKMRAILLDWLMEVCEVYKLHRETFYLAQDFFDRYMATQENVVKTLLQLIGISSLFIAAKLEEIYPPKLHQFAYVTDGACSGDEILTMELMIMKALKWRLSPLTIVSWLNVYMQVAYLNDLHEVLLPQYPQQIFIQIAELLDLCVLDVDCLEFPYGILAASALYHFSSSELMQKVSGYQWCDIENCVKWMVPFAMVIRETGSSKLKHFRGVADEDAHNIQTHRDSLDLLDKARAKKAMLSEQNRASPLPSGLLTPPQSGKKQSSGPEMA
Sequence (Q00526 whole entry, looked up): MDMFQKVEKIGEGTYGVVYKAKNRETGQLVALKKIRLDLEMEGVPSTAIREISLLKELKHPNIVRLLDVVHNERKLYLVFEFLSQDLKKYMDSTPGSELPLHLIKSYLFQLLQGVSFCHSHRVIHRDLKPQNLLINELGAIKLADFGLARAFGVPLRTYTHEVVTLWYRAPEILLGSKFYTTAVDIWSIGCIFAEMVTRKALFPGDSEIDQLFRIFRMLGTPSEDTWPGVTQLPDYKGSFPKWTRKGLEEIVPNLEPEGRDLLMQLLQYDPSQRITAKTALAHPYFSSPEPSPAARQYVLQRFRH
Assay: radiometric filter-binding kinase assay, Kinase HotSpot
Conditions: compound 0.5 µM; ATP 10 µM
metric.name: residual activity (%)

C[C@@H]1CCN(C(=O)CC#N)C[C@@H]1N(C)c1ncnc2[nH]ccc12 92.3
O=C1c2ccccc2-c2n[nH]c3cccc1c23 94.3
N#Cc1c[nH]c2c[nH]/c(=N\Cc3cccnc3)cc2/c1=N\c1ccc(F)c(Cl)c1 95.6
Cn1c2ccccc2c2c3c(c4c5ccccc5n(CCC#N)c4c21)CNC3=O 65.2
COc1cc(Nc2c(C#N)cnc3cc(OCCCN4CCN(C)CC4)c(OC)cc23)c(Cl)cc1Cl 91.9
COc1ccc(Cl)cc1NC(=O)Nc1cc(C)nc2ccccc12 93.6
NC(=O)c1cccc(-c2cc(Nc3ccc(OC(F)(F)F)cc3)ncn2)c1 98.8
COc1cc2ncnc(Nc3ccc(OCc4ccccc4)cc3)c2cc1OC 96.3
Cc1cn(-c2cc(NC(=O)c3ccc(C)c(Nc4nccc(-c5cccnc5)n4)c3)cc(C(F)(F)F)c2)cn1 95.2
O=C1c2ccccc2-c2nc3nnnn3nc21 73.4
NCCNc1ncc(C(N)=O)c(Nc2cccc(C(F)(F)F)c2)n1 95.3
Ic1cccc(CSc2nnc(-c3ccncc3)o2)c1 87.4
O=C1NC(=O)c2c1c1c3ccccc3[nH]c1n1cncc21 76.7

* * *

Catalogue of residual activity values
Biological target: PRKCB1 (human)
Test: radiometric filter-binding kinase assay, Kinase HotSpot
Settings: compound 0.5 µM; ATP 10 µM
metric.name: residual activity (%)

Ic1cccc(CSc2nnc(-c3ccncc3)o2)c1 97.5
COc1cc(Nc2c(C#N)cnc3cc(OCCCN4CCN(C)CC4)c(OC)cc23)c(Cl)cc1Cl 99.8
COc1cc2ncnc(Nc3ccc(Oc4ccccc4)cc3)c2cc1OC 109
COc1cc2ncnc(Nc3ccc(OCc4ccccc4)cc3)c2cc1OC 97.4
O=C1c2ccccc2-c2nc3nnnn3nc21 83.1
Fc1ccc(-c2nc3n(c2-c2ccncc2)CCS3)cc1 94.2
O=C1C(Cl)=C(N2C(=O)CCC2=O)C(=O)c2ccccc21 92.1
COc1ccc2c(c1)/C(=C/c1cnc[nH]1)C(O)=N2 112
N#Cc1c[nH]c2c[nH]/c(=N\Cc3cccnc3)cc2/c1=N\c1ccc(F)c(Cl)c1 104
COc1ccc(S(=O)(=O)N(CCO)c2ccccc2CN(C)C/C=C/c2ccc(Cl)cc2)cc1 97.7
C[C@@H]1CCN(C(=O)CC#N)C[C@@H]1N(C)c1ncnc2[nH]ccc12 101
COc1ccc(Cl)cc1NC(=O)Nc1cc(C)nc2ccccc12 105
CN(C)S(=O)(=O)c1ccc2c(c1)/C(=C/c1cc3c([nH]1)CCCC3)C(=O)N2 106
O=C(c1cc2cc(O)ccc2[nH]1)c1cc2cc(O)ccc2[nH]1 90.4
NC(=O)c1cccc(-c2cc(Nc3ccc(OC(F)(F)F)cc3)ncn2)c1 97.4
Cc1nc(-c2ccccc2)c(-c2ccncc2)o1 95.2
N#C/C(=C\c1ccc(O)c(O)c1)C(=O)NCc1ccccc1 91
COc1ccc2c(c1)c(C1=C(c3c[nH]c4ccccc34)C(=O)NC1=O)cn2CCCN(C)C 19.3
CS(=O)(=O)CCNCc1ccc(-c2ccc3ncnc(Nc4ccc(OCc5cccc(F)c5)c(Cl)c4)c3c2)o1 93.5

* * *

Target: CLK4 (human)
Assay: radiometric filter-binding kinase assay, Kinase HotSpot
Settings: compound 0.5 µM; ATP 10 µM
Catalogue of residual activity values
metric.name: residual activity (%)

COc1ccc(C(=O)Nc2sc3c(c2C(N)=O)CCCC3)cc1OC 86.8
NC(=O)c1cccc(-c2cc(Nc3ccc(OC(F)(F)F)cc3)ncn2)c1 97.8
Cc1nc(-c2ccccc2)c(-c2ccncc2)o1 121
O=C1c2ccccc2-c2nc3nnnn3nc21 78.3
COc1ccc(S(=O)(=O)N(CCO)c2ccccc2CN(C)C/C=C/c2ccc(Cl)cc2)cc1 96
N#Cc1c[nH]c2c[nH]/c(=N\Cc3cccnc3)cc2/c1=N\c1ccc(F)c(Cl)c1 63.3
COc1cc2ncnc(Nc3ccc(OCc4ccccc4)cc3)c2cc1OC 99.5
COc1ccc2c(c1)/C(=C/c1cnc[nH]1)C(O)=N2 72.6
CN(C)CCCn1cc(C2=C(c3c[nH]c4ccccc34)C(=O)NC2=O)c2ccccc21 44.8
Cc1cncc2cccc(S(=O)(=O)N3CCCN(C(=O)CN)C[C@H]3C)c12 105
COc1ccc(Cl)cc1NC(=O)Nc1cc(C)nc2ccccc12 108
CS(=O)(=O)CCNCc1ccc(-c2ccc3ncnc(Nc4ccc(OCc5cccc(F)c5)c(Cl)c4)c3c2)o1 115
CC(C)(C)c1cc(C=C(C#N)C#N)cc(Br)c1O 88.6
O=C1C(Cl)=C(N2C(=O)CCC2=O)C(=O)c2ccccc21 94.1
C[C@@H]1CCN(C(=O)CC#N)C[C@@H]1N(C)c1ncnc2[nH]ccc12 111
O=C1NC(=O)c2c1c1c3ccccc3[nH]c1n1cncc21 99
COc1cc2ncnc(Nc3ccc(Oc4ccccc4)cc3)c2cc1OC 122
COc1cc(Nc2c(C#N)cnc3cc(OCCCN4CCN(C)CC4)c(OC)cc23)c(Cl)cc1Cl 76.6
CO[C@@H]1[C@H](N(C)C(=O)c2ccccc2)C[C@H]2O[C@]1(C)n1c3ccccc3c3c4c(c5c6ccccc6n2c5c31)C(=O)NC4 22.6
c1ccc2c(-c3ccncc3)c[nH]c2c1 101

* * *

Molecular target: ERBB2 (human)
Assay: radiometric filter-binding kinase assay, Kinase HotSpot
Settings: compound 0.5 µM; ATP 10 µM
metric.name: residual activity (%)

O=C1C(Cl)=C(N2C(=O)CCC2=O)C(=O)c2ccccc21 95.4
COc1ccc(C(=O)Nc2sc3c(c2C(N)=O)CCCC3)cc1OC 93.3
NC(=O)c1cccc(-c2cc(Nc3ccc(OC(F)(F)F)cc3)ncn2)c1 89.5
N#C/C(=C\c1ccc(O)c(O)c1)C(=O)NCc1ccccc1 97.6
CN(C)CCCn1cc(C2=C(c3c[nH]c4ccccc34)C(=O)NC2=O)c2ccccc21 96.5
Ic1cccc(CSc2nnc(-c3ccncc3)o2)c1 99.6

* * *

Biological target: MARK2 (human) (UniProt Q7KZI7)
Sequence (Q7KZI7 whole entry, looked up): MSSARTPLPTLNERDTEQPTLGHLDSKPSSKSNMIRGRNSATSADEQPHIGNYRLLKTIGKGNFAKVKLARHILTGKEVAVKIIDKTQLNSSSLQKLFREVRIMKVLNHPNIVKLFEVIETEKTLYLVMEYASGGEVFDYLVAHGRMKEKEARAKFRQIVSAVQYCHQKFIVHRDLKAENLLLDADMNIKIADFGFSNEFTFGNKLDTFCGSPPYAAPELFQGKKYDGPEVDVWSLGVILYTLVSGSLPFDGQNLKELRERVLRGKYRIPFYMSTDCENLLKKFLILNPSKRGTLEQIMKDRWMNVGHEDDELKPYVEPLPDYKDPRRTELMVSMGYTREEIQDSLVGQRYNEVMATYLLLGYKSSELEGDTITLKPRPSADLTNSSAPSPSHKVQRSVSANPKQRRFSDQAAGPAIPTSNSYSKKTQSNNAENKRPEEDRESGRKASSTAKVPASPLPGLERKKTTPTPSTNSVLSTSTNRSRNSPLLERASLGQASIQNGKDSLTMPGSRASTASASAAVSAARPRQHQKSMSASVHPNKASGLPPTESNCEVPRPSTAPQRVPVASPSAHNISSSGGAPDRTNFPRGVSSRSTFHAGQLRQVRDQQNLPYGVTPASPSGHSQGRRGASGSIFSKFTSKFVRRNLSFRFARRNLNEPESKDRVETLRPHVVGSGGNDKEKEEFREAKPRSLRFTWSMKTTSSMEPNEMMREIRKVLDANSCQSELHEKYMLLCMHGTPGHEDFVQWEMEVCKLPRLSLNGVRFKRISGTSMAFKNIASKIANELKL
Test: radiometric filter-binding kinase assay, Kinase HotSpot
Details: compound 0.5 µM; ATP 10 µM
metric.name: residual activity

O=C1C(Cl)=C(N2C(=O)CCC2=O)C(=O)c2ccccc21 79.4%
N#Cc1c[nH]c2c[nH]/c(=N\Cc3cccnc3)cc2/c1=N\c1ccc(F)c(Cl)c1 93.2%
CN(C)S(=O)(=O)c1ccc2c(c1)/C(=C/c1cc3c([nH]1)CCCC3)C(=O)N2 61.7%
Cc1cncc2cccc(S(=O)(=O)N3CCCN(C(=O)CN)C[C@H]3C)c12 89.1%
CCCCc1c(-c2ccc(OC)cc2)[nH]c2nccnc12 83.1%
Ic1cccc(CSc2nnc(-c3ccncc3)o2)c1 116%
Fc1ccc(-c2nc3n(c2-c2ccncc2)CCS3)cc1 96.4%
COc1ccc(Cl)cc1NC(=O)Nc1cc(C)nc2ccccc12 99.5%
COc1ccc(S(=O)(=O)N(CCO)c2ccccc2CN(C)C/C=C/c2ccc(Cl)cc2)cc1 95.5%
COc1cc2ncnc(Nc3ccc(Oc4ccccc4)cc3)c2cc1OC 95.3%
CC(C)(C)c1cc(C=C(C#N)C#N)cc(Br)c1O 81.6%
O=C1NC(=O)c2c1c1c3ccccc3[nH]c1n1cncc21 34.7%
N#C/C(=C\c1ccc(O)c(O)c1)C(=O)NCc1ccccc1 88.2%
COc1ccc2c(c1)/C(=C/c1cnc[nH]1)C(O)=N2 50%
Cc1cccc(-c2nc(C(C)(C)C)[nH]c2-c2ccc3c(c2)OCO3)n1 90%
O=C1c2ccccc2-c2nc3nnnn3nc21 94.2%
COc1ccc(C(=O)Nc2sc3c(c2C(N)=O)CCCC3)cc1OC 98.7%
NC(=O)c1cccc(-c2cc(Nc3ccc(OC(F)(F)F)cc3)ncn2)c1 90.8%
CN(C)CCCn1cc(C2=C(c3c[nH]c4ccccc34)C(=O)NC2=O)c2ccccc21 71.7%
CS(=O)(=O)CCNCc1ccc(-c2ccc3ncnc(Nc4ccc(OCc5cccc(F)c5)c(Cl)c4)c3c2)o1 137%
O=C(c1cc2cc(O)ccc2[nH]1)c1cc2cc(O)ccc2[nH]1 59.9%
CN(C)c1ccc(/C=C2\C(=O)Nc3ccccc32)cc1 105%

* * *

Catalogue of residual activity values
Biological target: DYRK2 (human)
Test: radiometric filter-binding kinase assay, Kinase HotSpot
Conditions: compound 0.5 µM; ATP 10 µM
metric.name: residual activity (%)

O=C1NC(=O)c2c1c1c3ccccc3[nH]c1n1cncc21 64.1
CN(C)CCCn1cc(C2=C(c3c[nH]c4ccccc34)C(=O)NC2=O)c2ccccc21 111
O=C1C(Cl)=C(N2C(=O)CCC2=O)C(=O)c2ccccc21 98.6
CC(C)(C)c1cc(C=C(C#N)C#N)cc(Br)c1O 104
CN(C)S(=O)(=O)c1ccc2c(c1)/C(=C/c1cc3c([nH]1)CCCC3)C(=O)N2 103
Cn1c2ccccc2c2c3c(c4c5ccccc5n(CCC#N)c4c21)CNC3=O 48.9
COc1cc(Nc2c(C#N)cnc3cc(OCCCN4CCN(C)CC4)c(OC)cc23)c(Cl)cc1Cl 104
COc1cc2ncnc(Nc3ccc(Oc4ccccc4)cc3)c2cc1OC 104
O=C(c1cc2cc(O)ccc2[nH]1)c1cc2cc(O)ccc2[nH]1 89
CO[C@@H]1[C@H](N(C)C(=O)c2ccccc2)C[C@H]2O[C@]1(C)n1c3ccccc3c3c4c(c5c6ccccc6n2c5c31)C(=O)NC4 108
Ic1cccc(CSc2nnc(-c3ccncc3)o2)c1 96.8
COc1ccc(C(=O)Nc2sc3c(c2C(N)=O)CCCC3)cc1OC 92
NC(=O)c1cccc(-c2cc(Nc3ccc(OC(F)(F)F)cc3)ncn2)c1 78.7
N#C/C(=C\c1ccc(O)c(O)c1)C(=O)NCc1ccccc1 103
Cc1nc(-c2ccccc2)c(-c2ccncc2)o1 98.6
COc1cc2ncnc(Nc3ccc(OCc4ccccc4)cc3)c2cc1OC 111
Cc1cccc(-c2nc(C(C)(C)C)[nH]c2-c2ccc3c(c2)OCO3)n1 108
COc1ccc(S(=O)(=O)N(CCO)c2ccccc2CN(C)C/C=C/c2ccc(Cl)cc2)cc1 87.5
CCCCc1c(-c2ccc(OC)cc2)[nH]c2nccnc12 92.9
